B1: NCK2 (parent)
chain: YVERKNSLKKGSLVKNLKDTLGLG

variants of: B1; assay: protein stability index of a GFP-peptide fusion (GPS, HEK-293T) (PSI 1-6); higher = more stable; conditions: c terminus: a fixed tail appended;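 further: lentivirally expressed fusions sorted by FACS into six bins by GFP to DsRed ratio, PSI derived from sequencing read proportions per bin multiplied by bin number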
value.type: protein stability index
Please give the numeric answer without any surrounding text.

G24P = 2.28
Y1I = 3.03
T20G = 2.45
G11Q = 3.13

Field request: protein stability index | item: "K15R"
1.81

Would you kindly share the measured protein stability index for "K9D" ?
2.37

Param item = "L23Q" ; retrieve measured protein stability index.
2.33

Requested read-out: protein stability index. Entry: "L17R"
2.58

Can you share its protein stability index? I mean this variant: "E3P"
1.65

Need protein stability index of "G22D" , thanks.
2.21

Would you kindly share the measured protein stability index for "L13E" ?
2.87

Quick one: protein stability index of "K18N" ?
2.3

For "L17E" , what is its reported protein stability index?
2.85

Sample "G11A" — what was its protein stability index?
2.18

Could you tell me which protein stability index is on file for "G11M" ?
1.8

// query protein stability index value for entry "K10D"
2.56
